B1: PTPRD (parent)
chain: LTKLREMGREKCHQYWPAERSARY

variants of: B1; test: protein stability index of a GFP-peptide fusion (GPS, HEK-293T) (PSI 1-6); higher = more stable; details: c terminus: a fixed tail appended;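 also: lentivirally expressed fusions sorted by FACS into six bins by GFP to DsRed ratio, PSI derived from sequencing read proportions per bin multiplied by bin number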
Some variants, each annotated with its measured protein stability index.
The answer should be a number; do not append a unit.

Consider the variant LTKLREMGREKCHQYWPAERVARY [S21V] . State its measured protein stability index.
2.17
